Test system: sI-A^d
Sequence (P04228 24-111 limits assumed): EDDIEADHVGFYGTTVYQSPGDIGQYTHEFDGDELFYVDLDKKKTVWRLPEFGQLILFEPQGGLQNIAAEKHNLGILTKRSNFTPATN
Sequence (P01921 28-122 limits assumed, further chain): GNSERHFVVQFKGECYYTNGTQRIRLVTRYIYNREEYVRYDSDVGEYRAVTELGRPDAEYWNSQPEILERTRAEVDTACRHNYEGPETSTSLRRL
Settings: pH 5.3, 37° C., FITC peptide from sI-A^d
reported_metric: t1/2 (half-life, kinetic stability) of peptide with I-A^d (h)

| substance | unit_label | reported_measurement |
| --- | --- | --- |
| AMKRHGLDNYRGYSL [HEL [11-25]] | h | 6 |
| HEL R14Q, G22S: HEL [11-25] variant with changes at P1 and P9 (AMKQHGLDNYRSYSL; UniProt P00698 29-43, looked up, variant R14Q G22S) | h | 11 |
| R14Q, N19A, G22S: HEL [11-25] variant with changes at P1, P6, and P9 (AMKQHGLDAYRSYSL; UniProt P00698 29-43, looked up, variant R14Q N19A G22S) | h | 35 |
| OVA [327-339]: carboxyterminal register of OVA [323-339] recognized by the 3DO11.10 T cell (AVHAAHAEINEAG; UniProt P01012 327-339, looked up, fragment) | h | 0.3 |
| OVA [273-288]: immunodominant I-Ad restricted epitope from chicken ovalbumin (VMEERKIKVYLPRMKM; UniProt P01012 273-288, looked up, fragment) | h | 160 |
| HEL [20-35]: cryptic epitope of hen-egg lysozyme (YRGYSLGNWVCAAKFE; UniProt P00698 38-53, looked up, fragment) | h | 4 |
